system_under_test: Cytochrome P450 2C9 (Homo sapiens)
test_details: Cytochrome P450 family 2 subfamily C member 9 (CYP2C9) small molecule antagonists: luciferase biochemical (cell-free) qHTS assay (AID 1645842); note: nearly all actives have a fitted effect of over 55% in size
condition: P450-Glo CYP2C9 enzyme assay, luciferin luminescence; series mostly up to 57.4 µM
From the text: National Center for Advancing Translational Sciences [NCATS] Assay Overview: Cytochrome P450 (CYP) enzymes are membrane-bound hemeproteins that play a key role in metabolism of drugs and xenobiotics. Assaying the effect of chemicals on CYP isozymes is useful to minimize the adverse drug reactions and toxicities in drug development process. […] The luciferin products formed are detected with a luciferin detection reagent, and the amount of light produced is proportional to CYP activity. […]
Records with an inconclusive call do not appear. Calls of active or inactive are those of the source. Calls come from the whole dose curve; as a rule, active = well fitted inhibition curve with a large enough effect in the repeat runs; inconclusive = weak or mixed curves; inactive = no such curve, though single readings can be large or run the other way.
Outcomes you can answer with include only these: active, inactive

Q: Status in this test for `CCCc1nc2c(C)cc(-c3nc4ccccc4n3C)cc2n1Cc1ccc(-c2ccccc2C(=O)O)cc1` ?
Result: active

Q: Moving on to `COc1ccc(-c2c(-c3ccc(O)cc3O)n[nH]c2C)cc1`
Result: active

Q: Moving on to `Cc1ccc(NC(=O)c2cccc(C(C)(C)C#N)c2)cc1Nc1ccc2ncn(C)c(=O)c2c1`
Result: active

Q: Moving on to `NC(=O)c1cnccn1`
Result: inactive

Q: Moving on to `COc1ccc(-c2oc3cc(OC)ccc3c2C(=O)c2ccc(C#N)cc2)cc1`
Result: active

Q: Moving on to `CNCc1ccc(-c2[nH]c3cc(F)cc4c3c2CCNC4=O)cc1`
Result: active

Q: Moving on to `COc1cc2c(cc1OC)CN(CCc1ccc(NC(=O)c3cccc4c(=O)c5cccc(OC)c5[nH]c34)cc1)CC2`
Result: active

Q: Moving on to CCC(C)n1ncn(-c2ccc(N3CCN(c4ccc(OC[C@H]5CO[C@](Cn6cncn6)(c6ccc(Cl)cc6Cl)O5)cc4)CC3)cc2)c1=O (some centres not stated)
Result: active

Q: Moving on to `Cc1[nH]c(=O)c(C#N)cc1-c1ccc2nccn2c1`
Result: inactive

Q: Moving on to `CCOc1cc(C(=O)Nc2ccc(Cl)c(-c3nc4ccccc4[nH]3)c2)cc(OCC)c1OCC`
Result: inactive

Q: Moving on to `N=c1nc(N2CCCCC2)cc(N)n1O`
Result: inactive

Q: Moving on to OC(CCN1CCCCC1)(c1ccccc1)C1CC2C=CC1C2 (configuration not stated)
Result: inactive

Q: Moving on to `C[C@@H]1CN(Cc2ccc(F)cc2)[C@@H](C)CN1C(=O)c1cc2c(C(=O)C(=O)N(C)C)cn(C)c2cc1Cl`
Result: active

Q: Moving on to Cc1c(C)c2c(c(C)c1O)CCC(C)(COc1ccc(CC3SC(=O)NC3=O)cc1)O2 (configuration not stated)
Result: active

Q: Moving on to `NC(N)=NC(=O)c1nc(Cl)c(N)nc1N`
Result: inactive

Q: Moving on to `Cc1[nH]c(=O)c(C#N)cc1-c1ccncc1`
Result: active

Q: Moving on to `O=C(NOC[C@H](O)CO)c1ccc(F)c(F)c1Nc1ccc(I)cc1F`
Result: active

Q: Moving on to `Clc1cccc(Cl)c1NC1=NCCN1`
Result: inactive

Q: Moving on to `Cc1oncc1C(=O)Nc1ccc(C(F)(F)F)cc1`
Result: active

Q: Moving on to `O=c1[nH]cnc2[nH]ncc12`
Result: inactive

Q: Moving on to Oc1ccc(C2CNCCc3c2cc(O)c(O)c3Cl)cc1 (configuration not stated)
Result: inactive

Q: Moving on to `Clc1ccc(Nc2nnc(Cc3ccncc3)c3ccccc23)cc1`
Result: active

###

Test system: MCC-13
test_details: qHTS assay to identify novel small-molecules to repurpose for Merkel cell carcinoma treatment (AID 1296009); note: nearly all actives have a fitted effect of over 60% in size; note: potency is the fitted concentration of half-maximal effect
condition: MCC and control cell lines, CellTiter-Glo viability, 72 h; series mostly up to 46 µM
Results filed as inconclusive are left out. The source made the active and inactive calls. The call rests on the fitted dose curve; in most records, active means well fitted inhibition curve with a large enough effect; inconclusive means small, poorly fitted or top-dose-only effect; inactive means flat fitted curve, though single readings scatter.
property_name: Potency

INSERT INTO results (line_notation, system_under_test, obs_value) VALUES
  ('CN[C@@H](C)C(=O)N[C@H]1CCCC[C@H]2CC[C@@H](C(=O)N[C@@H](c3ccccc3)c3cn(CCCCc4ccc(CCCCn5cc([C@@H](NC(=O)[C@@H]6CC[C@@H]7CCCC[C@H](NC(=O)[C@H](C)NC)C(=O)N76)c6ccccc6)nn5)cc4)nn3)N2C1=O', 'MCC-13', 'inactive'),
  ('O=c1[nH]cnc2[nH]ncc12', 'MCC-13', 'inactive'),
  ('COc1ccc(C2=N[C@H](c3ccc(Cl)cc3)[C@H](c3ccc(Cl)cc3)N2C(=O)N2CCNC(=O)C2)c(OC(C)C)c1', 'MCC-13', 'inactive'),
  ('CO[C@@H]1[C@H](N(C)C(=O)c2ccccc2)C[C@H]2O[C@]1(C)n1c3ccccc3c3c4c(c5c6ccccc6n2c5c31)C(=O)NC4', 'MCC-13', '2.96 µM (active)');

###

Tested on: Hek293T
test_details: Primary qHTS to identify gynecologic anti-cancer compounds using libraries of approved drugs and bioactive compounds (AID 1345084); note: nearly all actives have a fitted effect of over 55% in size
condition: Gynecologic cancer cell panel viability, ATPlite luminescence, 48 h, control line for the selectivity index; series mostly up to 57.5 µM
Results filed as inconclusive are left out. Activity calls are given as the source filed them. Calls follow the shape of the dose curve; as a rule, active = well fitted cell-killing curve with a large enough effect; inconclusive = small, poorly fitted or top-dose-only effect, or effect the other way; inactive = flat fitted curve, though single readings scatter.
Outcomes you can answer with include only these: active, inactive

Q: Status in this test for `COc1cc2nccc(Oc3ccc(NC(=O)NC4CC4)c(Cl)c3)c2cc1C(N)=O` ?
Result: inactive

Q: Moving on to `CC(C)OC(=O)C1=CN(C(=O)c2ccc(F)c(F)c2)CC(C)(C)c2c1[nH]c1ccccc21`
Result: inactive

Q: Moving on to `NC[C@H](O)c1ccc(O)c(O)c1`
Result: inactive

Q: Moving on to `Cc1csc(NC(=O)c2sc3nc4c(c(C(F)(F)F)c3c2N)CCC4)n1`
Result: active

Q: Moving on to `Cc1ccc(N(CC2=NCCN2)c2cccc(O)c2)cc1`
Result: inactive

Q: Moving on to `Nc1ccc(S(=O)(=O)Nc2ccnn2-c2ccccc2)cc1`
Result: inactive

Q: Moving on to `Cn1cc(-c2ccc3nnc(C(F)(F)c4ccc5ncccc5c4)n3n2)cn1`
Result: inactive

Q: Moving on to `NC(=O)c1cnccn1`
Result: inactive

Q: Moving on to `C[C@H](NC(=O)Cc1cc(F)cc(F)c1)C(=O)N[C@@H]1C(=O)N(C)c2ccccc2-c2ccccc21`
Result: inactive

Q: Moving on to `Clc1cccc(Cl)c1NC1=NCCN1`
Result: inactive

Q: Moving on to `COc1ccccc1[C@H](c1cccc2ccccc12)[C@@](C)(C#N)C(=O)N1CCC(c2cccc(C(F)(F)F)c2)CC1`
Result: inactive

###

test_details: Quantitative High-Throughput drug screen in 47 multiple myeloma cell lines against the NCATS MIPE library collection: NCIH929_DSMZ cell viability assay (AID 1918978); note: nearly all actives have a fitted effect of over 35% in size
condition: NCI-H929 myeloma viability, CellTiter-Glo ATP, 48 h; series mostly up to 45.8 µM
Source text: PI: Beverly A. Mock Ph.D. Laboratory of Cancer Biology and Genetics, Center for Cancer Research, National Cancer Institute, National Institute of Health, Bethesda, Maryland […] 5; Detector; 425V; Luminescence; Viewlux PerkinElmer. […] 1. […] Briefly, the corresponding myeloma cell lines were screened in 1,536-well plates with 500 cells, 5-uL per well for inhibition of cell viability (assessed by measuring ATP levels with CellTiterGlo). […]
Records with an inconclusive call do not appear. Active and inactive are the calls of the source. The call rests on the fitted dose curve; in most records, active means well fitted cell-killing curve with a large enough effect; inconclusive means small, poorly fitted or top-dose-only effect; inactive means no such curve, though single readings can be large or run the other way.
Outcomes you can answer with include only these: active, inactive

Q: Status in this test for `CO[C@@H]1[C@H](N(C)C(=O)c2ccccc2)C[C@H]2O[C@]1(C)n1c3ccccc3c3c4c(c5c6ccccc6n2c5c31)C(=O)NC4` ?
Result: active

Q: Moving on to `S=C(NCc1ccc2c(c1)OCO2)N1CCN(c2ncnc3c2oc2ccccc23)CC1`
Result: active

Q: Moving on to `CCCc1nc2c(C)cc(-c3nc4ccccc4n3C)cc2n1Cc1ccc(-c2ccccc2C(=O)O)cc1`
Result: inactive

Q: Moving on to `Fc1ccc(Cl)cc1-c1nc(Nc2ccncc2)c2nccnc2n1`
Result: active

Q: Moving on to COc1cccc2cc(-c3nc(C4CCC(C(=O)O)CC4)n4ncnc(N)c34)[nH]c12 (stereo not given)
Result: active

###

Consider the following compounds; for each one, report its activity change, negative = inhibition.
test_details: qHTS Assay for Lipid Storage Modulators (AID 1519); note: % is set by controls: 0 for no effect and ±100 for the full control effect
condition: Drosophila S3 cells, BODIPY lipid droplet/cell ratio, laser cytometry; at 57.5 µM (top of the series); cells loaded with oleic acid
Description: NIH Molecular Libraries Probe Production Centers Network [MLPCN] NIH Chemical Genomics Center [NCGC] Assay Submitter (PI): Beller, Mathias; Max-Planck-Institut fur Biophysikalische Chemie […] We dispensed 4 uL of cells at 1.25 x 10^6 cells/mL into LoBase Aurora COC 1,536-well plates (black walled, clear bottom) with a bottle-valve solenoid-based dispenser (Aurora) to obtain 5,000 cells/well. […] The ratio of the total intensity in PMT channel 1 over total intensity of channel 3 was also calculated. […]
Records with an inconclusive call do not appear.
Report the figure in % without appending any unit label.

Q: Using the record for `Nc1nc2ccc(OC(F)(F)F)cc2s1` , report its activity change, negative = inhibition.
Result: 1.85

Q: Moving on to `Nc1ccc(S(=O)(=O)Nc2ccnn2-c2ccccc2)cc1`
Result: 14.1

Q: Moving on to `CCOC(=O)C1=C[C@]2(CC)CCCN3CCc4c(n1c1ccccc41)[C@@H]32`
Result: -17.2

Q: Moving on to `CCCc1nn(C)c2c(=O)[nH]c(-c3cc(S(=O)(=O)N4CCN(C)CC4)ccc3OCC)nc12`
Result: 9.83

Q: Moving on to `CC(C)(Sc1ccc(CCN(CCCCC2CCCCC2)C(=O)NC2CCCCC2)cc1)C(=O)O`
Result: -0.767

Q: Moving on to `CCOC(=O)N1CCC(=C2c3ccc(Cl)cc3CCc3cccnc32)CC1`
Result: 3.85

Q: Moving on to CCN(CC)CCCC(C)Nc1ccnc2cc(Cl)ccc12 (stereo not given)
Result: 4.83

Q: Moving on to `NNCCc1ccccc1`
Result: 11.9

Q: Moving on to `O=C1CCc2cc(OCCCCc3nnnn3C3CCCCC3)ccc2N1`
Result: -9.74

Q: Moving on to `CC(=O)Oc1ccccc1C(=O)O`
Result: 4.32

Q: Moving on to `CN1CCN(CCCN2c3ccccc3Sc3ccc(C(F)(F)F)cc32)CC1`
Result: 7.35

Q: Moving on to `NC[C@H](O)c1ccc(O)c(O)c1`
Result: 0.534

Q: Moving on to `CNC[C@H](O)c1cccc(O)c1`
Result: 0.239

Q: Moving on to CCn1cc(C(=O)O)c(=O)c2cc(F)c(N3CCNC(C)C3)c(F)c21 (stereo not given)
Result: 5.34

Q: Moving on to `CCCC(CCC)C(=O)O`
Result: 7.45
